Reference source for all entries: the supplement of paper PMC10126150

test system: ATP; test: switch fluorescence ratio, 500 uM ATP over buffer (Cy3 cluster intensity, sum of 5 cycles each) (fold (ratio)); higher = stronger signal-on switching upon ATP binding; sequences stand for … in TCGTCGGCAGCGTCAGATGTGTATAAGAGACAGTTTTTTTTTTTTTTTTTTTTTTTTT…TC; details: aptamer strand: ATP DNA aptamer (quencher-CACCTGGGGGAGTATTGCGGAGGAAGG + anchor), 100 nM annealed; ATP concentration: 500 uM;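 also: ATP exposure 15 min at 22 °C before imaging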
Give measured switch fluorescence ratio for each item. Keep answers brief.
Number, no unit, nothing else.

// field: switch fluorescence ratio; key: CGGATCTTGT ; value = 0.961

Field switch fluorescence ratio (entry GGGGAAGATT ) reads 0.986

For TCAGTAACGC the sequence record lists switch fluorescence ratio as 1.05

switch fluorescence ratio reading for AGTTGTGAGT : 0.973

Entry under test: CGGGTGAATT . Its switch fluorescence ratio was 1.01

Item: TCCAGATTTT | switch fluorescence ratio: 1

Memo: GAGGACATGC , reported switch fluorescence ratio: 0.979

The recorded switch fluorescence ratio for TGGAAGCGGG is 1.04

Entry TATGCGTTGG ; switch fluorescence ratio = 1.01

According to the records, this sequence AGAGAGTTTA displays switch fluorescence ratio of 1.04

Item: ATTTTGATGT | switch fluorescence ratio: 0.995

The recorded switch fluorescence ratio for entry TTTGTATGCA equals 1.04

sequence AAAAAGGATT , switch fluorescence ratio observed: 1

For reference, reported switch fluorescence ratio for GGCGGAACGT stands at 1

For reference, reported switch fluorescence ratio for ACATTTAATT stands at 0.983

Value of measured switch fluorescence ratio for the entry ATCAATTGAT : 1.01

switch fluorescence ratio reading for GCCTATGCGG : 1.01

Record summary for CCCCTGGCAT : reported switch fluorescence ratio = 1.42

For record TACTATTTTA the listed switch fluorescence ratio is 1

The sequence listed as CGGTTAGGAT has a reported switch fluorescence ratio of 0.994

Form field switch fluorescence ratio, entry CGTGGTGTTG : 0.991

Measured switch fluorescence ratio, TCAATGTGGT : 1.02

// switch fluorescence ratio value for GGGAGTTAGG : 0.961

The sequence identified as AGTAGAGGAC registered its switch fluorescence ratio at 1.01

switch fluorescence ratio in this record for GACGGTAGTT : 1.01

In plain terms, GTGGGGGGTA has a documented switch fluorescence ratio of 1

switch fluorescence ratio for GGTATTTGTT is 1.01

The sequence GTCGAGGGGA showed switch fluorescence ratio equal to 1.01

Consider AGTGACGCTC . Its measured switch fluorescence ratio is 1.08

Given item CTATTAGGTA , the value recorded as its switch fluorescence ratio is 0.977

Short answer for GGTGGGGGCT : switch fluorescence ratio was 0.973

// sample CAGTTTTCTT , its switch fluorescence ratio was 1.01

get_value(item= TTAGGGGTCT , readout=switch fluorescence ratio) returns 1.03

// ATTTTTTTCC : switch fluorescence ratio value = 1.38

switch fluorescence ratio reading for GATGCGAGGT : 0.952

Input GTTTCGGTTG . Output switch fluorescence ratio: 0.972

Short answer for ATATTATGAT : switch fluorescence ratio was 0.985

Value of switch fluorescence ratio reported for the sequence CGAAGGGAAA is 1.12

Reported switch fluorescence ratio for AATTAGATTC was 0.994

Please fill in: switch fluorescence ratio reported for ACATTTGCAG = 1.02

The sequence listed as GGGTTCGGAA shows switch fluorescence ratio equal to 0.997

Lab note: measured switch fluorescence ratio of TTCAGAAAGG was 1

Lab note: CTAATTTGCT gave switch fluorescence ratio of 1.04
